Each recorded value in this set is attributed to the supplement of paper PMC9732359.

# assay_name: protein stability index of a GFP-peptide fusion (yeast GPS) (PSI 1-4); higher = more stable; sorted into four equal gates, so the index is relative within each strain
# applied_conditions: san1∆
Mark FALSE for protein stability index values under 3, and TRUE for everything at or above.

Request: Assess whether reported protein stability index for ARRRQPTDQNNQSNLNG [SNF2] sits at 3 or higher.
Result: TRUE

Request: Assess whether reported protein stability index for GVVVLRDREPKEPVALI [RPN2] sits at 3 or higher.
Result: TRUE

Request: Assess whether reported protein stability index for DMVKLDINPPLVFILAV [RRP42] sits at 3 or higher.
Result: FALSE

Request: Assess whether reported protein stability index for LKEVLYNDSATSGEAAA [RPN2] sits at 3 or higher.
Result: FALSE

Request: Assess whether reported protein stability index for DEKLKTEKLKNDKSEVL [SRB8] sits at 3 or higher.
Result: TRUE

Request: Assess whether reported protein stability index for PINLENNDGSYGLFLKY [SRB8] sits at 3 or higher.
Result: FALSE

Request: Assess whether reported protein stability index for FRALGIIPDGEILEHIC [RPB2] sits at 3 or higher.
Result: FALSE

Request: Assess whether reported protein stability index for QITPTVPHSHPSDMVIP [SNF12] sits at 3 or higher.
Result: FALSE

Request: Assess whether reported protein stability index for VNGPNVHPGANYLLKRN [RPO31] sits at 3 or higher.
Result: TRUE

Request: Assess whether reported protein stability index for NSSSMEEVMRIALMGQD [ESC2] sits at 3 or higher.
Result: FALSE

Request: Assess whether reported protein stability index for SQLQEQFNKILPEPTEG [FAS1] sits at 3 or higher.
Result: FALSE

Request: Assess whether reported protein stability index for YLCFILSTRAGGLGLNL [SNF2] sits at 3 or higher.
Result: FALSE

Request: Assess whether reported protein stability index for EAEMAYVKAVSDKAQLN [SMC4] sits at 3 or higher.
Result: FALSE

Request: Assess whether reported protein stability index for ATIRETYEIICDQTKSV [RRP43] sits at 3 or higher.
Result: FALSE

Request: Assess whether reported protein stability index for EGSKSHPFGHALVAGIE [RPL27A] sits at 3 or higher.
Result: FALSE

Request: Assess whether reported protein stability index for SFLMRQFTRFFLLVPSK [ECM29] sits at 3 or higher.
Result: FALSE

Request: Assess whether reported protein stability index for EFIYLTKVLQFAAKQRQ [SNF2] sits at 3 or higher.
Result: FALSE

Request: Assess whether reported protein stability index for EYIELEYRDLYTNSVEL [YMR129W/POM152] sits at 3 or higher.
Result: TRUE

Request: Assess whether reported protein stability index for LVKALEDIMVHYDNTTR [RPO21] sits at 3 or higher.
Result: FALSE

Request: Assess whether reported protein stability index for QRARDQDSIDISIKDNK [GAL11] sits at 3 or higher.
Result: TRUE

Request: Assess whether reported protein stability index for TFSWLNAELLDYLFHLL [YLR018C/POM34] sits at 3 or higher.
Result: FALSE

Request: Assess whether reported protein stability index for EGEPVNSPNYFVAKLAA [COR1] sits at 3 or higher.
Result: TRUE

Request: Assess whether reported protein stability index for NVTMIDDLIHFTLKQWN [COR1] sits at 3 or higher.
Result: FALSE

Request: Assess whether reported protein stability index for LYSGLIIDEIITQMRVN [RPC82] sits at 3 or higher.
Result: FALSE

Request: Assess whether reported protein stability index for LNVGNVLPLGSVPEGTI [RPL2A] sits at 3 or higher.
Result: TRUE

Request: Assess whether reported protein stability index for GTPLQNNLHELWALLNF [ISW2] sits at 3 or higher.
Result: FALSE

Request: Assess whether reported protein stability index for NLSAFKIVYIAPLKALV [BRR2] sits at 3 or higher.
Result: FALSE

Request: Assess whether reported protein stability index for DFDNIEFKKIPRVKGFK [SEC65] sits at 3 or higher.
Result: FALSE

Request: Assess whether reported protein stability index for RLAPLIKEENDMENMAD [ARP7] sits at 3 or higher.
Result: FALSE

Request: Assess whether reported protein stability index for RNTMMIQCQIDKLYIHF [RGR1] sits at 3 or higher.
Result: FALSE

Request: Assess whether reported protein stability index for EFTPADPNLSFESSSSL [SSN2] sits at 3 or higher.
Result: FALSE

Request: Assess whether reported protein stability index for EDNEMLEDLFSYRNGMA [YJR042W/NUP85] sits at 3 or higher.
Result: FALSE

Request: Assess whether reported protein stability index for LFSKNRNEVLESMDFLV [YCS4] sits at 3 or higher.
Result: FALSE

Request: Assess whether reported protein stability index for MADLQKQENSSRFTNVS [YMR153W/NUP53] sits at 3 or higher.
Result: FALSE

Request: Assess whether reported protein stability index for QVRKKQIETINFLRLPA [YDL116W/NUP84] sits at 3 or higher.
Result: FALSE

Request: Assess whether reported protein stability index for DQAIVTETKRLVVIRFG [DIB1] sits at 3 or higher.
Result: FALSE

Request: Assess whether reported protein stability index for IEDEDEPFNAGIKYHAT [SMC1] sits at 3 or higher.
Result: FALSE

Request: Assess whether reported protein stability index for KNAGLGFKTPKTAIEGS [RPS11A] sits at 3 or higher.
Result: TRUE

Request: Assess whether reported protein stability index for TQNSRHYMVHEALNLLK [LIN1] sits at 3 or higher.
Result: FALSE

Request: Assess whether reported protein stability index for HIKFSAGTEANAVSFDT [SRB4] sits at 3 or higher.
Result: FALSE

Request: Assess whether reported protein stability index for ESNDRINKIVEILTNQQ [YGR119C/NUP57] sits at 3 or higher.
Result: FALSE

Request: Assess whether reported protein stability index for LSESDKKSKLISLYLLN [RPN12] sits at 3 or higher.
Result: FALSE

Request: Assess whether reported protein stability index for VISNLVPKLESSRTKFW [YJL039C/NUP192] sits at 3 or higher.
Result: FALSE

Request: Assess whether reported protein stability index for QRRVLLSAPLSKELRAQ [RPL26A] sits at 3 or higher.
Result: FALSE

Request: Assess whether reported protein stability index for NRKVLQALEKIGIVEIS [RPS19A] sits at 3 or higher.
Result: FALSE

Request: Assess whether reported protein stability index for KDGEDIIFNYVPGPGTK [CSL4] sits at 3 or higher.
Result: FALSE

Request: Assess whether reported protein stability index for LKLENLHVVSKSSIEKD [SIN4] sits at 3 or higher.
Result: TRUE
